Numbers sourced from patent US20240082218A1.

# assayOverview: Blood pharmacokinetics
# particulars: in vivo
quantityMeasured: half-life

# molecule, valueReported
measured = [
    ("C=CC(=O)N1CC2(CC(n3nc(-c4ccc5c(cnn5C)c4)c(-c4c(Cl)c(C)cc5[nH]ncc45)c3C)C2)C1 (single isomer, unassigned) [Compound A]", "~2 h"),
]

----------
# studySystem: KRASG12C (Homo sapiens, UniProt P01116, G12C)
# Sequence (P01116 1-188 isoform P01116-2 G12C): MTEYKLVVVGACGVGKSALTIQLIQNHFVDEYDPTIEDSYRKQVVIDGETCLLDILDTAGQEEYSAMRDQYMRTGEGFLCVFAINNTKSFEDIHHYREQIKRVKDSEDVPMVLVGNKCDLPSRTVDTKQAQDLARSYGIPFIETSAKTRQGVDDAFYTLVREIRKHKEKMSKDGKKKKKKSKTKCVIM
# assayOverview: cRAF recruitment 6 h cellular assay
# Assay type: cell-based
quantityMeasured: EC50 (nM)

# compound, valueReported
measured = [
    ("C=CC(=O)N1CC2(CC(n3nc(-c4ccc5c(cnn5C)c4)c(-c4c(Cl)c(C)cc5[nH]ncc45)c3C)C2)C1 (single isomer, unassigned)", 20),
]

----------
# studySystem: HRAS WT (Homo sapiens, UniProt P01112)
# Sequence (P01112 whole entry): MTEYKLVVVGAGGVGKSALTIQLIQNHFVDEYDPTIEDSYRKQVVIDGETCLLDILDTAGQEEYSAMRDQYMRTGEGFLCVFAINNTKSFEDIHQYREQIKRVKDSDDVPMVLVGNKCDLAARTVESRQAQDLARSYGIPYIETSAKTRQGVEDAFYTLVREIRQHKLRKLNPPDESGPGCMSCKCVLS
# assayOverview: cRAF recruitment 6 h cellular assay
pEC50: −log10 of the molar value.
quantityMeasured: pEC50

# compound, valueReported
rows = [
    ("C=CC(=O)N1CC2(CC(n3nc(-c4ccc5c(cnn5C)c4)c(-c4c(Cl)c(C)cc5[nH]ncc45)c3C)C2)C1 (single isomer, unassigned) [Compound A]", "< 5.00"),
]

----------
# studySystem: KRASG12C (Homo sapiens, UniProt P01116, G12C)
# assayOverview: Cellular target occupancy 6 h
# Format: cell-based
quantityMeasured: EC50 (nM)

# molecule, studySystem, valueReported
rows = [
    ("C=CC(=O)N1CC2(CC(n3nc(-c4ccc5c(cnn5C)c4)c(-c4c(Cl)c(C)cc5[nH]ncc45)c3C)C2)C1 (single isomer, unassigned)", "KRASG12C (Homo sapiens, UniProt P01116, G12C)", 30),
]

----------
# studySystem: KRASG12C (Homo sapiens, UniProt P01116, G12C)
# assayOverview: In vitro KRAS G12C target occupancy in H358 cancer cells
# particulars: read-out: in vitro IC50 for inhibition of KRAS G12C (target occupancy)

# compound, IC50
records = [
    ("C=CC(=O)N1CC2(CC(n3nc(-c4ccc5c(cnn5C)c4)c(-c4c(Cl)c(C)cc5[nH]ncc45)c3C)C2)C1 (single isomer, unassigned) [Compound A]", "20 nM"),
]

----------
# studySystem: NRAS WT (Homo sapiens)
# Sequence (P01111 whole entry): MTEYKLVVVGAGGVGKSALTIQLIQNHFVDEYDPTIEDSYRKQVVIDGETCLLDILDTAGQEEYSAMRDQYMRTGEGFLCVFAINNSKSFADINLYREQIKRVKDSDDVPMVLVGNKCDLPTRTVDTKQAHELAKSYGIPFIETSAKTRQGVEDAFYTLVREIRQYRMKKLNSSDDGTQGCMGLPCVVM
# assayOverview: cRAF recruitment 6 h cellular assay
pEC50: −log10 of the molar value.

# compound, studySystem, pEC50
rows = [
    ("C=CC(=O)N1CC2(CC(n3nc(-c4ccc5c(cnn5C)c4)c(-c4c(Cl)c(C)cc5[nH]ncc45)c3C)C2)C1 (single isomer, unassigned)", "NRAS WT (Homo sapiens)", "< 5.22"),
]

----------
# Tested on: pERK
# assayOverview: In vitro pERK inhibition in H358 cancer cells
# Format: cell-based
# particulars: Homo sapiens, NCI-H358
pIC50: −log10 of the molar value.
quantityMeasured: pIC50

# compound, quantityMeasured, valueReported
rows = [
    ("C=CC(=O)N1CC2(CC(n3nc(-c4ccc5c(cnn5C)c4)c(-c4c(Cl)c(C)cc5[nH]ncc45)c3C)C2)C1 (single isomer, unassigned)", "pIC50", 7.70),
]
